# tested.target: Ae. aegypti NPYLR7 (Aedes aegypti, UniProt U5N1H5)
# Sequence (U5N1H5 entry or part of it): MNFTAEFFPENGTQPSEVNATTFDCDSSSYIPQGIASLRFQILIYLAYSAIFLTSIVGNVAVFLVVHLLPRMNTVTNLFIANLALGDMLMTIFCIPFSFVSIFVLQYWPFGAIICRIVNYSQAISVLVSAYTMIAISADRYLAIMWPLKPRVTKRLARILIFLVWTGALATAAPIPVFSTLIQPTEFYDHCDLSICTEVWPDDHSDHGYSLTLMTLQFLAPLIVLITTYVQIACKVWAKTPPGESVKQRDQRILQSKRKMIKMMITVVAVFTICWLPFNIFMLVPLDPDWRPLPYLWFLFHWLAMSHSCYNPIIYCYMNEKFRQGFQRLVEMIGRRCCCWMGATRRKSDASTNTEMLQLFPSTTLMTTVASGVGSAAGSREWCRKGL
# test.description: In vitro calcium (GCaMP6s) FLIPR assay in HEK293T cells transfected with NPYLR7
# Assay type: cell-based
# conditions: Figure 1E Summary, second list (n = 48); read-out: Reported Metric (Summary list)
pEC50: −log10 of the molar value.

# molecule, pEC50
data = [
    ("Cc1nc(NC(=N)N)nc2cc(OC3CCCc4ccccc43)ccc12 (stereo not shown)", 4.86),
    ("Cc1nc(NC(=N)N)nc2cc(OCc3cnccn3)ccc12", 5.21),
    ("Cc1nc(NC(=N)N)nc2cc(N3CCc4ccccc4C3)ccc12", 4.45),
    ("Cc1nc(NC(=N)N)nc2cc(OCc3ccc(OC(F)(F)F)cc3)ccc12", 4.70),
    ("CCOc1ccc2c(C)nc(NC(=N)N)nc2c1", 5.25),
    ("CCOc1cc2c(C)nc(NC(=N)N)nc2cc1OCc1ccccc1", 5.07),
    ("Cc1nc(NC(=N)N)nc2cc(OCC3CCCCO3)ccc12 (stereo not shown)", 5.24),
    ("Cc1nc(NC(=N)N)nc2cc(OCC(F)(F)F)ccc12", 5.37),
    ("Cc1nc(NC(=N)N)nc2cc(OCC3CCCCC3)ccc12", 5.35),
    ("Cc1nc(NC(=N)N)nc2cc(OCC3CCOC3)ccc12 (stereo not shown)", 5.28),
    ("CCOc1ccc(COc2ccc3c(C)nc(NC(=N)N)nc3c2)cc1", 5.20),
    ("Cc1nc(NC(=N)N)nc2cc(OCC3CCCOC3)ccc12 (stereo not shown)", 5.13),
    ("Cc1nc(NC(=N)N)nc2cc(OCc3cccnn3)ccc12", 4.41),
]

====

Quick reference: log10 of EC50 of the listed items.
# tested.target: Ae. aegypti NPYLR7 (Aedes aegypti)
# test.description: In vitro calcium (GCaMP6s) FLIPR assay in HEK293T cells transfected with NPYLR7
# Assay type: cell-based
# conditions: summary EC50 per compound (mean over assay dates); the unit is taken from the neighbouring EC50 (uM) column; read-out: Reported Metric
# Method: The in vitro screening assay was adapted from, and carried out at HD Biosciences (HDB, Shanghai) as follows: HEK293T (Thermo Fisher Scientific) cells were grown in Dulbecco’s modified Eagle medium (DMEM) (high glucose, with glutamine), 10% fetal bovine serum, 1% penicillin–streptomycin (Pen/Strep), seeded in a 75 cm^2 flask, and incubated at 37 °C and 5% CO2. […] Data were collected in raw fluorescence units (RFU). […]
experimental.endpoint: log10 of EC50 (log10 of the value in µM)

# compound, value.measured
records = [
    ("Cc1nc(NC(=N)N)nc2cc(OCC3CCCOC3)ccc12 (stereo not drawn)", 0.87),
    ("CCOc1cc2c(C)nc(NC(=N)N)nc2cc1OCc1ccccc1", 0.93),
    ("Cc1nc(NC(=N)N)nc2cc(OCC(F)(F)F)ccc12", 0.63),
    ("Cc1nc(NC(=N)N)nc2cc(OCc3cnccn3)ccc12", 0.79),
    ("COc1ccc(OCc2ccc3c(C)nc(NC(=N)N)nc3c2)cc1", -0.26),
    ("COc1ccc(COc2ccc3c(C)nc(NC(=N)N)nc3c2)cn1", 0.12),
    ("Cc1nc(NC(=N)N)nc2cc(OC3CCCc4ccccc43)ccc12 (stereo not drawn)", 1.14),
    ("Cc1nc(NC(=N)N)nc2cc(OCC3CC3)ccc12", -0.04),
    ("CCOc1ccc(COc2ccc3c(C)nc(NC(=N)N)nc3c2)cc1", 0.80),
    ("Cc1nc(NC(=N)N)nc2cc(OCc3cccnn3)ccc12", 1.59),
    ("Cc1nc(NC(=N)N)nc2cc(OCC3CCOC3)ccc12 (stereo not drawn)", 0.73),
    ("Cc1nc(NC(=N)N)nc2cc(OCc3ccc(OC(F)(F)F)cc3)ccc12", 1.29),
    ("Cc1nc(NC(=N)N)nc2cc(OCc3ccc(OC(F)F)cc3)ccc12", 0.21),
    ("CCOc1ccc2c(C)nc(NC(=N)N)nc2c1", 0.75),
    ("CNc1nc(NC(=N)N)nc2cc(OCc3ccccc3)c(OC)cc12", -0.31),
    ("COc1ccc(COc2ccc3c(C)nc(NC(=N)N)nc3c2)cc1OC", -2.72),
    ("Cc1nc(NC(=N)N)nc2cc(N3CCc4ccccc4C3)ccc12", 1.55),
    ("CNc1nc(NC(=N)N)nc2cc(OCc3ccc(OC)cc3)c(OC)cc12", -1.76),
]
